target: hNav1.7 (Homo sapiens (Human), UniProt Q15858); assay: Tritiated sulfonamide competitive binding to membranes from cells expressing hNav1.7 and the β1 subunit; details: read-out: Ligand Binding Assay; 100 pM [3H]compound, membranes with hNav1.7 and β1 subunit, 18 h, room temperature;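 note: Filter-bound radioactivity counted by liquid scintillation, nonspecific binding defined with excess unlabelled ligand, IC50 fitted to percent inhibition of specific binding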
Sequence (Q15858 other isoform, or with tags, fused parts or gaps): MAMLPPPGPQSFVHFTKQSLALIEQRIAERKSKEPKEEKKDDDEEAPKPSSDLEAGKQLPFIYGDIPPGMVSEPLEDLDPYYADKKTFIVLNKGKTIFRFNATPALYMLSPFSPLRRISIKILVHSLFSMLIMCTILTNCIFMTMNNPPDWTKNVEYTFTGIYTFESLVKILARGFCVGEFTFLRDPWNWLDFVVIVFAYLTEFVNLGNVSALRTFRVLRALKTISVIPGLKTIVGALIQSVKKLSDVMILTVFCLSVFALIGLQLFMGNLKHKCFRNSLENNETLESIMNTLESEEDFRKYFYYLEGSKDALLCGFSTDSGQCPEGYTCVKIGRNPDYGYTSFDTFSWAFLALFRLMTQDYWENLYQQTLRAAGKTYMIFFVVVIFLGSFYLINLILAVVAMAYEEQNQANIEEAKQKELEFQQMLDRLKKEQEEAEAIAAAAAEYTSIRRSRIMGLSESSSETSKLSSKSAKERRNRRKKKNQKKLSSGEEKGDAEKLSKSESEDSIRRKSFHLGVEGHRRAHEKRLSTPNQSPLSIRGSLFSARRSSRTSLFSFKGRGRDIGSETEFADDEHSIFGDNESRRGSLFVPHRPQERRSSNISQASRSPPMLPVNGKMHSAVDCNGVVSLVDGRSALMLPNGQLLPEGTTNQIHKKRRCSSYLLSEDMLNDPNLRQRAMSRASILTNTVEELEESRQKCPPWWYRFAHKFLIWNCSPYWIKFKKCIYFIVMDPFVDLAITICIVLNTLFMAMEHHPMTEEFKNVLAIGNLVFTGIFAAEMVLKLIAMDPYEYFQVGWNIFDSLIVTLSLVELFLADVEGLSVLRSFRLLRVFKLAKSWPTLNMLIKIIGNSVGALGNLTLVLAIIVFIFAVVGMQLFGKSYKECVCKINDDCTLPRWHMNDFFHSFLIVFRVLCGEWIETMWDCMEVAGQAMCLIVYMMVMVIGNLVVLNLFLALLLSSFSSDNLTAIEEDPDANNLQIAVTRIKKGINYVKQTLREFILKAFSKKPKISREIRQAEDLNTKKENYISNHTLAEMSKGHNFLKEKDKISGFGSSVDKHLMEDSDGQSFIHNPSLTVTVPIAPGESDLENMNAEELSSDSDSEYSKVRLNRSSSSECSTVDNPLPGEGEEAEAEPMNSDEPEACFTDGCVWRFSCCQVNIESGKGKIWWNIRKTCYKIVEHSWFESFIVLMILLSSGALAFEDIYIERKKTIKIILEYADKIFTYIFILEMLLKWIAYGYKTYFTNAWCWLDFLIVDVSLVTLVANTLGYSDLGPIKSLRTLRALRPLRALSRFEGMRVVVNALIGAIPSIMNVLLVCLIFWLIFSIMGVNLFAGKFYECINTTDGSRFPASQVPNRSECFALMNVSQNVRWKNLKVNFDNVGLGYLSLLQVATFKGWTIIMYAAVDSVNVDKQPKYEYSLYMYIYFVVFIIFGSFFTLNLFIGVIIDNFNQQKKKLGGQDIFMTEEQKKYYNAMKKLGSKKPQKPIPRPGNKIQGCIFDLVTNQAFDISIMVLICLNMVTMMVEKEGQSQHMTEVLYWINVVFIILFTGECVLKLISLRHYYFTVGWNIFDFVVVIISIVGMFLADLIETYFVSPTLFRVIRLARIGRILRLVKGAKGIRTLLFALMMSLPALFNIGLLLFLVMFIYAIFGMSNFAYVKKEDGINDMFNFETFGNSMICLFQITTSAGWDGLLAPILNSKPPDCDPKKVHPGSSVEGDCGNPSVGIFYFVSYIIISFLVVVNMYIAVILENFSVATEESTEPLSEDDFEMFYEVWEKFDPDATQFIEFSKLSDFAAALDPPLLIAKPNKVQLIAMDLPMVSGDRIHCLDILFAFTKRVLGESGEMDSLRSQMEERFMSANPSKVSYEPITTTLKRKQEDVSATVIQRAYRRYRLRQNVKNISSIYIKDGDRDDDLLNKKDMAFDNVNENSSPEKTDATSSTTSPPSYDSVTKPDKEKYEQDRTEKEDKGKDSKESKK
Sequence (Q07699 19-218 partner): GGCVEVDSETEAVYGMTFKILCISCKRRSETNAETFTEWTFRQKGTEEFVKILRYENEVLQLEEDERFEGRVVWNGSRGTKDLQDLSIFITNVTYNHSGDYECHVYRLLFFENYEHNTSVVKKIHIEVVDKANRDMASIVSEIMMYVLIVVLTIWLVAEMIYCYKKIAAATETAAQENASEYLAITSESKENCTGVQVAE
pIC50: −log10 of the molar value. Where a name gives a salt, the structure may show the parent alone.
Recorded metric: pIC50

Worked cases, pIC50 given:
# Compound, Recorded metric, Assay result
rows = [
    ("O=C(NS(=O)(=O)C1CC1)c1cc(C2CC2)c(CN2CCO[C@H](Cc3cc(Cl)cc(Cl)c3)C2)cc1F [Example 464]", "pIC50", 8.57),
    ("CC1(COc2cc(F)c(C(=O)NS(C)(=O)=O)cc2C2CC2)CN(Cc2cc(Cl)cc(Cl)c2)C1 [Example 77]", "pIC50", 8.19),
    ("Cc1ccc(CN2CCC[C@@H](Oc3cc(F)c(C(=O)NS(C)(=O)=O)cc3C3CC3)C2)cc1C [Example 439]", "pIC50", 7.96),
    ("O=C(NS(=O)(=O)C1CC1)c1cc(C2CC2)c(O[C@@H]2CCCN(Cc3cc(Cl)cc(Cl)c3)C2)cc1F [Example 3]", "pIC50", 8.59),
    ("CC[C@H](c1cc(Cl)cc(Cl)c1)N1CCC(COc2cc(F)c(C(=O)NS(C)(=O)=O)cc2C2CC2)CC1 [Example 240]", "pIC50", 8.62),
]

[1] O=C(NS(=O)(=O)C1CC1)c1cc(C2CC2)c(CN2CCC(Oc3ncc(Br)cc3Cl)CC2)cc1F [Example 473, trifluoroacetic acid salt]
[2] COC[C@H](c1cccc(Cl)c1)N1CCC(COc2cc(F)c(C(=O)NS(C)(=O)=O)cc2C2CC2)CC1 (single isomer, unassigned) [Example 263]
Ask | Between these two entries, 1 and 2 , state which has the higher pIC50. Returns: label corresponding to the selected item.
Reply | 1

[I] CS(=O)(=O)NC(=O)c1cc(C2CC2)c(OCC2CCN(S(=O)(=O)c3ccc(C(F)(F)F)cc3)CC2)cc1F [Example 372]
[II] CS(=O)(=O)NC(=O)c1cc(C2CC2)c(O[C@@H]2CCCN(Cc3ccc(-c4ccccc4)cc3)C2)cc1F [Example 426, trifluoroacetic acid salt]
Ask | Between these two entries, I and II , state which has the higher pIC50. Returns: label corresponding to the selected item.
Reply | II
(II: 8.51, I: 7.31)

[A] O=C(NS(=O)(=O)C1CC1)c1cc(C2CC2)c(OCC2CCN(C(=O)c3cccc(Cl)c3)CC2)cc1F [Example 196]
[B] COc1ccc(CN2CCC[C@@H](Oc3cc(F)c(C(=O)NS(C)(=O)=O)cc3C3CC3)C2)cc1OC [Example 430, trifluoroacetic acid salt]
Ask | Which has the smaller recorded pIC50, A or B ? Returns: label corresponding to the selected item.
Reply | B
(B: 6.27, A: 7.37)

[P] CS(=O)(=O)NC(=O)c1cc(C2CC2)c(OCC2CN([C@@H](c3ccccc3)c3ccccn3)C2)cc1F [Example 118]
[Q] O=C(NS(=O)(=O)CCC(F)(F)F)c1cc(C2CC2)c(OCC2CN(C(c3ccccc3)c3ccccc3)C2)cc1F [Example 63]
[R] CS(=O)(=O)NC(=O)c1cc(C2CC2)c(OCC2CCN(C(c3cccc(Cl)c3)c3cccc(Cl)c3)CC2)cc1F [Example 352, trifluoroacetic acid salt]
Ask | Ascending by pIC50, please: list the compounds accordingly. Could you list the labels in the order requested?
Reply | P, Q, R
(P: 6.38, Q: 7.34, R: 8.70)
